These entries and their values trace back to PubChem BioAssay AID1963434.

- System: 755483-174-R-J1-PDC complex spheroid growth, percent test/control
- TEST: Anticancer human tumor 755483-174-R-J1-PDC patient-derived rhabdomyosarcoma cell line growth inhibition [Asc]
- APPLIED_CONDITIONS: second compound 0.949 µM; first compound 0.1 µM; hits give low values
viability, T/C for assorted compounds
QUANTITY: viability, T/C (%)

compound="C=C(F)C(=O)N1CCN(c2nc(OCC3CCCN3C)nc3c2CCN(c2cccc4cccc(Cl)c24)C3)CC1CC#N (stereo unspecified) + CCN1C(C(=O)NC23CCC(C(=O)O)(CC2)CC3)C(c2cccc(Cl)c2F)C2(C(=O)Nc3cc(Cl)ccc32)C12CCCCC2" scale_unit=% meas_value=97.3
compound="C=CC(=O)N1CCN(c2nc(=O)n(-c3c(C)ccnc3C(C)C)c3nc(-c4c(O)cccc4F)c(F)cc23)C(C)C1 (stereo unspecified) + CCN1C(C(=O)NC23CCC(C(=O)O)(CC2)CC3)C(c2cccc(Cl)c2F)C2(C(=O)Nc3cc(Cl)ccc32)C12CCCCC2" scale_unit=% meas_value=82.7
compound="O=C(c1ccc(F)c(F)c1Nc1ccc(I)cc1F)N1CC(O)([C@@H]2CCCCN2)C1 + CCN1C(C(=O)NC23CCC(C(=O)O)(CC2)CC3)C(c2cccc(Cl)c2F)C2(C(=O)Nc3cc(Cl)ccc32)C12CCCCC2" scale_unit=% meas_value=121
compound="CCN1CCN(Cc2ccc(Nc3ncc(F)c(-c4cc(F)c5nc(C)n(C(C)C)c5c4)n3)nc2)CC1 + CCN1C(C(=O)NC23CCC(C(=O)O)(CC2)CC3)C(c2cccc(Cl)c2F)C2(C(=O)Nc3cc(Cl)ccc32)C12CCCCC2" scale_unit=% meas_value=86.8
compound="C#Cc1c(F)ccc2cc(O)cc(-c3ncc4c(N5CC6CCC(C5)N6)nc(OCC56CCCN5CC(F)C6)nc4c3F)c12 (stereo unspecified) + CCN1C(C(=O)NC23CCC(C(=O)O)(CC2)CC3)C(c2cccc(Cl)c2F)C2(C(=O)Nc3cc(Cl)ccc32)C12CCCCC2" scale_unit=% meas_value=79.5
compound="O=C(c1cc(Cc2n[nH]c(=O)c3ccccc23)ccc1F)N1CCN(C(=O)C2CC2)CC1 + CCN1C(C(=O)NC23CCC(C(=O)O)(CC2)CC3)C(c2cccc(Cl)c2F)C2(C(=O)Nc3cc(Cl)ccc32)C12CCCCC2" scale_unit=% meas_value=69.2

---

- System: 755483-174-R-J1-PDC complex spheroid growth, percent test/control
- TEST: Anticancer human tumor 755483-174-R-J1-PDC cell line growth inhibition [Asc];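 also: spheroids exposed to compounds for seven days before readout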
- APPLIED_CONDITIONS: second compound 0.3 µM; first compound 0.00316 µM; hits give low values
QUANTITY: viability, T/C (%)

compound="COc1c(OCCCN2CCOCC2)ccc2c3n(c(=NC(=O)c4cnc(N)nc4)nc12)CCN3 + CCN1C(C(=O)NC23CCC(C(=O)O)(CC2)CC3)C(c2cccc(Cl)c2F)C2(C(=O)Nc3cc(Cl)ccc32)C12CCCCC2" meas_value=82.1
compound="CCN1CCN(Cc2ccc(Nc3ncc(F)c(-c4cc(F)c5nc(C)n(C(C)C)c5c4)n3)nc2)CC1 + CCN1C(C(=O)NC23CCC(C(=O)O)(CC2)CC3)C(c2cccc(Cl)c2F)C2(C(=O)Nc3cc(Cl)ccc32)C12CCCCC2" meas_value=87
compound="Cn1ncnc1[C@H]1c2n[nH]c(=O)c3cc(F)cc(c23)N[C@@H]1c1ccc(F)cc1 + CCN1C(C(=O)NC23CCC(C(=O)O)(CC2)CC3)C(c2cccc(Cl)c2F)C2(C(=O)Nc3cc(Cl)ccc32)C12CCCCC2" meas_value=58.6

---

viability, T/C for assorted compounds
- System: 755483-174-R-J1-PDC complex spheroid growth, percent test/control
- TEST: Anticancer human tumor 755483-174-R-J1-PDC cell line growth inhibition [Asc];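 also: spheroids exposed to compounds for seven days before readout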
- APPLIED_CONDITIONS: second compound 3.16 µM; first compound 0.01 µM; hits give low values
QUANTITY: viability, T/C (%)

compound="Cn1ncnc1[C@H]1c2n[nH]c(=O)c3cc(F)cc(c23)N[C@@H]1c1ccc(F)cc1 + Cc1c(S(C)(=O)=O)c(-c2cc(F)cc(N3CCN(c4ccc(NS(=O)(=O)c5ccc(NC(CCN6CCC(C(=O)OCCCP(=O)(O)O)CC6)CSc6ccccc6)c(S(=O)(=O)C(F)(F)F)c5)cc4)CC3)c2)c(-c2ccc(Cl)cc2)n1C(C)C" assayed_target="755483-174-R-J1-PDC complex spheroid growth, percent test/control" scale_unit=% meas_value=18.6
compound="CCN1CCN(Cc2ccc(Nc3ncc(F)c(-c4cc(F)c5nc(C)n(C(C)C)c5c4)n3)nc2)CC1 + Cc1c(S(C)(=O)=O)c(-c2cc(F)cc(N3CCN(c4ccc(NS(=O)(=O)c5ccc(NC(CCN6CCC(C(=O)OCCCP(=O)(O)O)CC6)CSc6ccccc6)c(S(=O)(=O)C(F)(F)F)c5)cc4)CC3)c2)c(-c2ccc(Cl)cc2)n1C(C)C" assayed_target="755483-174-R-J1-PDC complex spheroid growth, percent test/control" scale_unit=% meas_value=66
compound="COc1c(OCCCN2CCOCC2)ccc2c3n(c(=NC(=O)c4cnc(N)nc4)nc12)CCN3 + Cc1c(S(C)(=O)=O)c(-c2cc(F)cc(N3CCN(c4ccc(NS(=O)(=O)c5ccc(NC(CCN6CCC(C(=O)OCCCP(=O)(O)O)CC6)CSc6ccccc6)c(S(=O)(=O)C(F)(F)F)c5)cc4)CC3)c2)c(-c2ccc(Cl)cc2)n1C(C)C" assayed_target="755483-174-R-J1-PDC complex spheroid growth, percent test/control" scale_unit=% meas_value=29.1
compound="O=C(c1ccc(F)c(F)c1Nc1ccc(I)cc1F)N1CC(O)([C@@H]2CCCCN2)C1 + Cc1c(S(C)(=O)=O)c(-c2cc(F)cc(N3CCN(c4ccc(NS(=O)(=O)c5ccc(NC(CCN6CCC(C(=O)OCCCP(=O)(O)O)CC6)CSc6ccccc6)c(S(=O)(=O)C(F)(F)F)c5)cc4)CC3)c2)c(-c2ccc(Cl)cc2)n1C(C)C" assayed_target="755483-174-R-J1-PDC complex spheroid growth, percent test/control" scale_unit=% meas_value=25
compound="CNC(C)C(=O)NC1CN(S(=O)(=O)c2cccc(S(=O)(=O)N3CCC4CCC(C(=O)NC(c5ccccc5)c5ccccc5)N4C(=O)C(NC(=O)C(C)NC)C3)c2)CCC2CCC(C(=O)NC(c3ccccc3)c3ccccc3)N2C1=O (stereo unspecified) + Cc1c(S(C)(=O)=O)c(-c2cc(F)cc(N3CCN(c4ccc(NS(=O)(=O)c5ccc(NC(CCN6CCC(C(=O)OCCCP(=O)(O)O)CC6)CSc6ccccc6)c(S(=O)(=O)C(F)(F)F)c5)cc4)CC3)c2)c(-c2ccc(Cl)cc2)n1C(C)C" assayed_target="755483-174-R-J1-PDC complex spheroid growth, percent test/control" scale_unit=% meas_value=15.9
compound="NC1CCC(NC2CC2c2ccccc2)CC1 (stereo unspecified) + Cc1c(S(C)(=O)=O)c(-c2cc(F)cc(N3CCN(c4ccc(NS(=O)(=O)c5ccc(NC(CCN6CCC(C(=O)OCCCP(=O)(O)O)CC6)CSc6ccccc6)c(S(=O)(=O)C(F)(F)F)c5)cc4)CC3)c2)c(-c2ccc(Cl)cc2)n1C(C)C" assayed_target="755483-174-R-J1-PDC complex spheroid growth, percent test/control" scale_unit=% meas_value=35.9

---

viability, T/C for assorted compounds
- Test system: 755483-174-R-J1-PDC complex spheroid growth, percent test/control
- TEST: Anticancer human tumor 755483-174-R-J1-PDC cell line growth inhibition [Asc];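 also: spheroids exposed to compounds for seven days before readout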
- APPLIED_CONDITIONS: second compound 0.1 µM; first compound 10 µM; hits give low values
QUANTITY: viability, T/C (%)

compound="O=C(c1cc(Cc2n[nH]c(=O)c3ccccc23)ccc1F)N1CCN(C(=O)C2CC2)CC1 + Cc1c(S(C)(=O)=O)c(-c2cc(F)cc(N3CCN(c4ccc(NS(=O)(=O)c5ccc(NC(CCN6CCC(C(=O)OCCCP(=O)(O)O)CC6)CSc6ccccc6)c(S(=O)(=O)C(F)(F)F)c5)cc4)CC3)c2)c(-c2ccc(Cl)cc2)n1C(C)C" quantity="viability, T/C" scale_unit=% meas_value=14.7
compound="C#Cc1c(F)ccc2cc(O)cc(-c3ncc4c(N5CC6CCC(C5)N6)nc(OCC56CCCN5CC(F)C6)nc4c3F)c12 (stereo not drawn) + Cc1c(S(C)(=O)=O)c(-c2cc(F)cc(N3CCN(c4ccc(NS(=O)(=O)c5ccc(NC(CCN6CCC(C(=O)OCCCP(=O)(O)O)CC6)CSc6ccccc6)c(S(=O)(=O)C(F)(F)F)c5)cc4)CC3)c2)c(-c2ccc(Cl)cc2)n1C(C)C" quantity="viability, T/C" scale_unit=% meas_value=12.6
compound="C=CC(=O)N1CCN(c2nc(=O)n(-c3c(C)ccnc3C(C)C)c3nc(-c4c(O)cccc4F)c(F)cc23)C(C)C1 (stereo not drawn) + Cc1c(S(C)(=O)=O)c(-c2cc(F)cc(N3CCN(c4ccc(NS(=O)(=O)c5ccc(NC(CCN6CCC(C(=O)OCCCP(=O)(O)O)CC6)CSc6ccccc6)c(S(=O)(=O)C(F)(F)F)c5)cc4)CC3)c2)c(-c2ccc(Cl)cc2)n1C(C)C" quantity="viability, T/C" scale_unit=% meas_value=56.2
